Would you mind telling me the reported shrunken log2 fold change of each entry?
System: Escherichia coli TOP10
assay explanation: shrunken log2 fold change of peptide-encoding DNA abundance (4.5 h post-induction vs induction); higher = less antimicrobial activity (less host growth inhibition)
test settings: time post-induction: 4.5 h; library: site-saturation at positions 5, 18, 19, 20
// no unit, no text: just the number

Summary for this sequence, `RRIRYRPPRLPRPRPRPIQGPRP` : shrunken log2 fold change is -0.0804

Summary for this sequence, `RRIRRRPPRLPRPRPRPMTDPRP` : shrunken log2 fold change is 0.00399

Summary for this sequence, `RRIRTRPPRLPRPRPRPALCPRP` : shrunken log2 fold change is -0.0776

* * *

System: Escherichia coli TOP10;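 further: peptides expressed intracellularly from a pBAD plasmid library in pooled LB shake-flask culture, induced with 0.3% L-arabinose, DNA abundance read by NGS, three biological replicates, DESeq2 with apeglm shrinkage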
assay explanation: shrunken log2 fold change of peptide-encoding DNA abundance (4.5 h post-induction vs induction); higher = less antimicrobial activity (less host growth inhibition)
test settings: time post-induction: 4.5 h; library: site-saturation at positions 5, 18, 19, 20
Would you mind labelling by shrunken log2 fold change? At or over 0.07 is true (1), under is false (0).

Query block: Test whether the sequence `RRIRPRPPRLPRPRPRPSGMPRP` records shrunken log2 fold change of 0.07 or higher.
Result block: false (0)

Query block: Test whether the sequence `RRIRYRPPRLPRPRPRPTKAPRP` records shrunken log2 fold change of 0.07 or higher.
Result block: false (0)

Query block: Test whether the sequence `RRIRTRPPRLPRPRPRPEPTPRP` records shrunken log2 fold change of 0.07 or higher.
Result block: true (1)

Query block: Test whether the sequence `RRIRERPPRLPRPRPRPLRSPRP` records shrunken log2 fold change of 0.07 or higher.
Result block: true (1)

Query block: Test whether the sequence `RRIRPRPPRLPRPRPRPVHYPRP` records shrunken log2 fold change of 0.07 or higher.
Result block: false (0)

Query block: Test whether the sequence `RRIRWRPPRLPRPRPRPMIYPRP` records shrunken log2 fold change of 0.07 or higher.
Result block: false (0)

Query block: Test whether the sequence `RRIRWRPPRLPRPRPRPVDMPRP` records shrunken log2 fold change of 0.07 or higher.
Result block: false (0)

Query block: Test whether the sequence `RRIRPRPPRLPRPRPRPPGYPRP` records shrunken log2 fold change of 0.07 or higher.
Result block: true (1)

Query block: Test whether the sequence `RRIRIRPPRLPRPRPRPIVVPRP` records shrunken log2 fold change of 0.07 or higher.
Result block: false (0)

Query block: Test whether the sequence `RRIRSRPPRLPRPRPRPHFVPRP` records shrunken log2 fold change of 0.07 or higher.
Result block: false (0)

Query block: Test whether the sequence `RRIRLRPPRLPRPRPRPMPTPRP` records shrunken log2 fold change of 0.07 or higher.
Result block: true (1)

Query block: Test whether the sequence `RRIRERPPRLPRPRPRPPMFPRP` records shrunken log2 fold change of 0.07 or higher.
Result block: false (0)

Query block: Test whether the sequence `RRIRRRPPRLPRPRPRPKNMPRP` records shrunken log2 fold change of 0.07 or higher.
Result block: false (0)

Query block: Test whether the sequence `RRIRHRPPRLPRPRPRPCARPRP` records shrunken log2 fold change of 0.07 or higher.
Result block: false (0)

Query block: Test whether the sequence `RRIRIRPPRLPRPRPRPICDPRP` records shrunken log2 fold change of 0.07 or higher.
Result block: false (0)

Query block: Test whether the sequence `RRIRPRPPRLPRPRPRPCSMPRP` records shrunken log2 fold change of 0.07 or higher.
Result block: false (0)

Query block: Test whether the sequence `RRIRWRPPRLPRPRPRPIIDPRP` records shrunken log2 fold change of 0.07 or higher.
Result block: true (1)

Query block: Test whether the sequence `RRIRLRPPRLPRPRPRPTVFPRP` records shrunken log2 fold change of 0.07 or higher.
Result block: true (1)

Query block: Test whether the sequence `RRIRYRPPRLPRPRPRPQMPPRP` records shrunken log2 fold change of 0.07 or higher.
Result block: false (0)

Query block: Test whether the sequence `RRIRKRPPRLPRPRPRPVFLPRP` records shrunken log2 fold change of 0.07 or higher.
Result block: false (0)

Query block: Test whether the sequence `RRIRTRPPRLPRPRPRPNKDPRP` records shrunken log2 fold change of 0.07 or higher.
Result block: false (0)

Query block: Test whether the sequence `RRIRGRPPRLPRPRPRPIFQPRP` records shrunken log2 fold change of 0.07 or higher.
Result block: true (1)

Query block: Test whether the sequence `RRIRTRPPRLPRPRPRPCHYPRP` records shrunken log2 fold change of 0.07 or higher.
Result block: false (0)

Query block: Test whether the sequence `RRIRQRPPRLPRPRPRPDKIPRP` records shrunken log2 fold change of 0.07 or higher.
Result block: false (0)

Query block: Test whether the sequence `RRIRARPPRLPRPRPRPTHWPRP` records shrunken log2 fold change of 0.07 or higher.
Result block: true (1)

Query block: Test whether the sequence `RRIRFRPPRLPRPRPRPFDGPRP` records shrunken log2 fold change of 0.07 or higher.
Result block: false (0)

Query block: Test whether the sequence `RRIRERPPRLPRPRPRPKDIPRP` records shrunken log2 fold change of 0.07 or higher.
Result block: false (0)

Query block: Test whether the sequence `RRIRMRPPRLPRPRPRPDCNPRP` records shrunken log2 fold change of 0.07 or higher.
Result block: true (1)

Query block: Test whether the sequence `RRIRQRPPRLPRPRPRPVGHPRP` records shrunken log2 fold change of 0.07 or higher.
Result block: false (0)

Query block: Test whether the sequence `RRIRYRPPRLPRPRPRPLGYPRP` records shrunken log2 fold change of 0.07 or higher.
Result block: false (0)

Query block: Test whether the sequence `RRIRVRPPRLPRPRPRPVFTPRP` records shrunken log2 fold change of 0.07 or higher.
Result block: false (0)

Query block: Test whether the sequence `RRIRERPPRLPRPRPRPPDKPRP` records shrunken log2 fold change of 0.07 or higher.
Result block: true (1)

Query block: Test whether the sequence `RRIRLRPPRLPRPRPRPQSTPRP` records shrunken log2 fold change of 0.07 or higher.
Result block: false (0)

Query block: Test whether the sequence `RRIRSRPPRLPRPRPRPTHQPRP` records shrunken log2 fold change of 0.07 or higher.
Result block: true (1)

Query block: Test whether the sequence `RRIRKRPPRLPRPRPRPICHPRP` records shrunken log2 fold change of 0.07 or higher.
Result block: true (1)

Query block: Test whether the sequence `RRIRNRPPRLPRPRPRPSCVPRP` records shrunken log2 fold change of 0.07 or higher.
Result block: false (0)

Query block: Test whether the sequence `RRIRMRPPRLPRPRPRPTRLPRP` records shrunken log2 fold change of 0.07 or higher.
Result block: true (1)

Query block: Test whether the sequence `RRIRQRPPRLPRPRPRPYNQPRP` records shrunken log2 fold change of 0.07 or higher.
Result block: false (0)

Query block: Test whether the sequence `RRIRPRPPRLPRPRPRPTNDPRP` records shrunken log2 fold change of 0.07 or higher.
Result block: false (0)

Query block: Test whether the sequence `RRIRHRPPRLPRPRPRPFHQPRP` records shrunken log2 fold change of 0.07 or higher.
Result block: false (0)

Query block: Test whether the sequence `RRIRRRPPRLPRPRPRPSLSPRP` records shrunken log2 fold change of 0.07 or higher.
Result block: true (1)

Query block: Test whether the sequence `RRIRSRPPRLPRPRPRPSTFPRP` records shrunken log2 fold change of 0.07 or higher.
Result block: false (0)

Query block: Test whether the sequence `RRIRNRPPRLPRPRPRPFIIPRP` records shrunken log2 fold change of 0.07 or higher.
Result block: false (0)

Query block: Test whether the sequence `RRIRYRPPRLPRPRPRPGKIPRP` records shrunken log2 fold change of 0.07 or higher.
Result block: false (0)

Query block: Test whether the sequence `RRIRRRPPRLPRPRPRPQVDPRP` records shrunken log2 fold change of 0.07 or higher.
Result block: true (1)

Query block: Test whether the sequence `RRIRNRPPRLPRPRPRPQFDPRP` records shrunken log2 fold change of 0.07 or higher.
Result block: true (1)

Query block: Test whether the sequence `RRIRARPPRLPRPRPRPLMDPRP` records shrunken log2 fold change of 0.07 or higher.
Result block: true (1)

Query block: Test whether the sequence `RRIRSRPPRLPRPRPRPRSNPRP` records shrunken log2 fold change of 0.07 or higher.
Result block: false (0)

Query block: Test whether the sequence `RRIRARPPRLPRPRPRPSPPPRP` records shrunken log2 fold change of 0.07 or higher.
Result block: true (1)

Query block: Test whether the sequence `RRIRMRPPRLPRPRPRPKKAPRP` records shrunken log2 fold change of 0.07 or higher.
Result block: false (0)

Query block: Test whether the sequence `RRIRVRPPRLPRPRPRPAGPPRP` records shrunken log2 fold change of 0.07 or higher.
Result block: true (1)

Query block: Test whether the sequence `RRIRWRPPRLPRPRPRPQCFPRP` records shrunken log2 fold change of 0.07 or higher.
Result block: true (1)

Query block: Test whether the sequence `RRIRERPPRLPRPRPRPSFMPRP` records shrunken log2 fold change of 0.07 or higher.
Result block: false (0)

Query block: Test whether the sequence `RRIRVRPPRLPRPRPRPSFNPRP` records shrunken log2 fold change of 0.07 or higher.
Result block: false (0)
